# Tested on: MDA-N
# runDescription: NCI tumour cell line growth inhibition, 48 h
Active and inactive are the calls of the source. Cut-off read from the data, not from the text of the source: active = GI50 up to about 1.1 µM and inactive = higher.
Attribute: GI50

NNC(=O)c1ccc[n+](CCc2ccccc2)c1: > 100 µM (inactive)

Query :: Entry under review: O=C(O)c1ccccc1CC(Cc1ccc2c(c1)CCC2)C(=O)O (configuration not stated) . Reported GI50?
Result :: > 100 µM (inactive)

Query :: Entry under review: CC1(C)C=C(/C=C2/N(S(=O)(=O)C(F)(F)F)C(/C=C3/N(S(=O)(=O)C(F)(F)F)C(C)(C#N)CC3(C)C)=CC2(C)C)N=C1/C=C1/CC(C)(C)C(=O)N1 (configuration not stated) . Reported GI50?
Result :: 21.4 µM (inactive)

Query :: Entry under review: CCOC(NC(=O)CC)(C(F)(F)F)C(F)(F)F . Reported GI50?
Result :: > 100 µM (inactive)

Query :: Entry under review: COC(=O)c1cc(C)ccc1/C=C1\Cc2cc(C)c(C)cc2C1=O . Reported GI50?
Result :: > 100 µM (inactive)

Query :: Entry under review: CCc1nnc(S)n1/N=C\c1ccc(-c2ccccc2Cl)o1 . Reported GI50?
Result :: 20.5 µM (inactive)

Query :: Entry under review: O=[N+]([O-])c1nccn1CC(O)CN1CCCCC1 (configuration not stated) . Reported GI50?
Result :: > 100 µM (inactive)

Query :: Entry under review: [N-]=[N+]=Nc1ccc2c(c1)Sc1ccccc1N2CCCCN1CCN(Cc2ccc(C(=O)c3ccccc3)cc2)CC1 . Reported GI50?
Result :: 9.51 µM (inactive)

Query :: Entry under review: Cc1cc2c(cc1Cl)SC(c1ccccc1)C(=O)NS2(=O)=O (configuration not stated) . Reported GI50?
Result :: 34.1 µM (inactive)

Query :: Entry under review: C/C(=N/NC(=S)N1CCN(C(=S)N/N=C(/C)c2ccccn2)CC1)c1ccccn1 . Reported GI50?
Result :: > 77.8 µM (inactive)

Query :: Entry under review: Oc1c(C(Nc2ccccn2)c2ccccc2)ccc2cccnc12 (configuration not stated) . Reported GI50?
Result :: 5.7 µM (inactive)

Query :: Entry under review: S=C1C(CCCOCc2ccccc2)C2CCCC23CC2(CCN13)OCCS2 (configuration not stated) . Reported GI50?
Result :: > 10 µM (inactive)

Value source: ChEMBL document CHEMBL1201862
